src = ChEMBL document CHEMBL1156589

Kindly supply the reported IC50 values for the records listed here.
- target entity: Corticotropin-releasing factor receptor 1 (Homo sapiens, UniProt P34998)
- Sequence (P34998 whole entry): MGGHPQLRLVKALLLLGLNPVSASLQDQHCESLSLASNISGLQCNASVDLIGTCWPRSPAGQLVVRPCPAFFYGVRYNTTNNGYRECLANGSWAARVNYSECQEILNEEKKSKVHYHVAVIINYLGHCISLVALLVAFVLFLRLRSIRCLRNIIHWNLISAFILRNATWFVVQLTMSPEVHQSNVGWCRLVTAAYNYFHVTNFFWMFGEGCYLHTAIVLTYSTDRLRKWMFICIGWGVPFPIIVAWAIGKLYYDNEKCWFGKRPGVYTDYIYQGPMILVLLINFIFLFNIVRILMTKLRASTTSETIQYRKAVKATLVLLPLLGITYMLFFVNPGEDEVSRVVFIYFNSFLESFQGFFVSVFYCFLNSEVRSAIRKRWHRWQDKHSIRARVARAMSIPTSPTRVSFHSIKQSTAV
- measurement notes: Antagonist activity at CRF1 receptor expressed in mouse AtT20 cells assessed as inhibition of sauvagine-stimulated cAMP accumulation
- Format: functional, cell-based
Answers are plain numbers, in nM.

# count of solved cases: 3
CCCN(CCC)c1c(C)nc(-c2c(OC)cc(Cl)cc2OC)nc1OC 1
CCC(CC)Oc1c(C)nc(-c2c(OC)cc(Cl)cc2OC)nc1OC 7
CCC(CC)Oc1c(C)nc(-c2c(C)cc(C)cc2OC)nc1OC 19

Here is another compound to look at.
### Prompt Annotate the compound "CCCN(CCC)c1c(C)nc(-c2c(C)cc(C)cc2OC)c2ccccc12" with its measured IC50.
### Response 12
